System: ASNase treated CCRF-CEM cells
Assay: CCRF-CEM ASNase cell proliferation assay, phenotypic assay for cellular inhibition of GCN2
Assay type: cell-based
Conditions: Homo sapiens, 1 mU/mL ASNase, 72 h, resazurin
pIC50: −log10 of the molar value.
So I've got a bunch of molecules here, and I need their pIC50 values.

Looking up Cn1cc(-c2cccc(NS(=O)(=O)c3cc(Cl)cc(Br)c3Cl)c2F)c2c(N)ncnc21 [Example 42] , I see its pIC50 listed as 5.00 to 6.00

Looking up CSc1nc(-c2cccc(NS(=O)(=O)c3cc(Cl)cc(CO)c3Cl)c2F)c2c(N)nccn12 [Example 21] , I see its pIC50 listed as 6.30 to 7.00

Looking up CNCc1cc(Cl)cc(S(=O)(=O)Nc2cccc(-c3cn(C)c4ncnc(N)c34)c2F)c1Cl [Example 50] , I see its pIC50 listed as 5.00 to 6.00

Looking up CC(=O)OCc1cc(Cl)cc(S(=O)(=O)Nc2cccc(-c3nc(C(C)(C)C)n4ccnc(N)c34)c2F)c1Cl [Example 30] , I see its pIC50 listed as 5.00 to 6.00

Looking up Nc1nccn2c(C3CC3)nc(-c3cccc(NS(=O)(=O)c4cc(Cl)cc(CO)c4Cl)c3F)c12 [Example 14] , I see its pIC50 listed as ≥ 7.00

Looking up CCCC(=O)OCc1cc(Cl)cc(S(=O)(=O)Nc2cccc(-c3nc(C)n4ccnc(N)c34)c2F)c1Cl [Example 33] , I see its pIC50 listed as 6.30 to 7.00

====

Test system: ASNase treated CCRF-CEM cells
Assay: CCRF-CEM ASNase cell proliferation assay, phenotypic assay for cellular inhibition of GCN2
Assay type: cell-based
Conditions: Homo sapiens, 1 mU/mL ASNase, 72 h, resazurin
property_label: IC50

Looking up Nc1ncnn2ccc(-c3cccc(NS(=O)(=O)c4cc(Cl)cc(CO)c4Cl)c3F)c12 , I see its IC50 listed as 100 to 500 nM

Looking up Cn1cc(-c2cccc(NS(=O)(=O)c3ccc(F)c(CO)c3Cl)c2F)c2c(N)ncnc21 , I see its IC50 listed as 1000 to 10000 nM

Looking up CCC(=O)OCc1cc(Cl)cc(S(=O)(=O)Nc2cccc(-c3nc(C)n4ccnc(N)c34)c2F)c1Cl , I see its IC50 listed as 1000 to 10000 nM

Looking up Cc1c(CO)cc(F)cc1S(=O)(=O)Nc1cccc(-c2nc(C)n3ccnc(N)c23)c1F , I see its IC50 listed as 1000 to 10000 nM

Looking up CNC(=O)c1nc(-c2cccc(NS(=O)(=O)c3cc(Cl)cc(CO)c3Cl)c2F)c2c(N)nccn12 , I see its IC50 listed as 100 to 500 nM

Looking up Cn1cc(-c2cccc(NS(=O)(=O)c3cc(Cl)cc(CN)c3Cl)c2F)c2c(N)ncnc21 , I see its IC50 listed as 1000 to 10000 nM

Looking up COc1cc(Cl)c(S(=O)(=O)Nc2cccc(-c3cn(C)c4ncnc(N)c34)c2F)cc1Cl , I see its IC50 listed as 1000 to 10000 nM

Looking up Cc1nc(-c2cccc(NS(=O)(=O)c3cc(F)cc(CO)c3Cl)c2F)c2c(N)nccn12 , I see its IC50 listed as 500 to 1000 nM

====

Molecular target: PERK kinase (Homo sapiens, UniProt Q9NZJ5, A704S)
Construct: GST (with thrombin site LVPRGS)
Sequence (Q9NZJ5 with tags, fused parts or gaps A704S): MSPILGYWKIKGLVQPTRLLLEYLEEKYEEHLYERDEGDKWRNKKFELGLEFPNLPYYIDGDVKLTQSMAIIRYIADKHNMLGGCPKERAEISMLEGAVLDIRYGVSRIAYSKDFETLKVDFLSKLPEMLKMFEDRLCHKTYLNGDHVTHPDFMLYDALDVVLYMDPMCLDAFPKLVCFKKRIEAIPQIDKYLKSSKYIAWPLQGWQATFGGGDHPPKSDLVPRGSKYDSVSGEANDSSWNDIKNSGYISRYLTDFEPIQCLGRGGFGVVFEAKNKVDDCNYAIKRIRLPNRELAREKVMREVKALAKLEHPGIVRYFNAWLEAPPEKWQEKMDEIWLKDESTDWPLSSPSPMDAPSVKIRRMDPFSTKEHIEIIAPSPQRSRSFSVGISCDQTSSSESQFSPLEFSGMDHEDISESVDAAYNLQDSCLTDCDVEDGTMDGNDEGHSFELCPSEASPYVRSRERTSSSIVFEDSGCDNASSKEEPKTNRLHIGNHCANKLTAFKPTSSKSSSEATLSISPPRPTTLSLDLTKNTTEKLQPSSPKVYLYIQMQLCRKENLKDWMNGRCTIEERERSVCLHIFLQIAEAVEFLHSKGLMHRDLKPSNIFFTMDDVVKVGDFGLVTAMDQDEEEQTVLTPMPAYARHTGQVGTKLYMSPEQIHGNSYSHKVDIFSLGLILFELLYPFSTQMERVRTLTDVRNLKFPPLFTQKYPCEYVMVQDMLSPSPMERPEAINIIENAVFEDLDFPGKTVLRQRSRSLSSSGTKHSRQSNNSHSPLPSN
Assay: Biochemical assay for PERK (coupled pyruvate kinase/lactate dehydrogenase assay)
Conditions: 10 nM PERK, 1 mM ATP, reaction rate 2-3 h time frame, 30° C.
pIC50: −log10 of the molar value.
property_label: pIC50

Looking up CO/N=C\c1cc(Cl)cc(S(=O)(=O)Nc2cccc(-c3cn(C)c4ncnc(N)c34)c2F)c1Cl , I see its pIC50 listed as ≥ 7.00

Looking up COc1ncc(Cl)cc1S(=O)(=O)Nc1cc(F)c(F)c(-c2nc(C)n3ccnc(N)c23)c1 , I see its pIC50 listed as 6.00 to 6.30

Looking up Cc1nc(-c2cc(NS(=O)(=O)c3cc(Cl)cc(CO)c3Cl)cc(F)c2F)c2c(N)nccn12 , I see its pIC50 listed as ≥ 7.00

Looking up Cc1nc(-c2cccc(NS(=O)(=O)c3cc(Cl)cc(CO)c3Cl)c2F)c2c(N)nccn12 , I see its pIC50 listed as ≥ 7.00

Looking up Nc1nccn2c(-c3ccccc3)nc(-c3cccc(NS(=O)(=O)c4cc(Cl)cc(CO)c4Cl)c3F)c12 , I see its pIC50 listed as ≥ 7.00

Looking up CCCC(=O)OCc1cc(Cl)cc(S(=O)(=O)Nc2cccc(-c3nc(C)n4ccnc(N)c34)c2F)c1Cl , I see its pIC50 listed as 6.00 to 6.30

Looking up Cn1cc(-c2cccc(NS(=O)(=O)c3cc(Cl)cc(CN)c3Cl)c2F)c2c(N)ncnc21 , I see its pIC50 listed as 6.30 to 7.00

Looking up COc1cc(Cl)c(S(=O)(=O)Nc2cccc(-c3cn(C)c4ncnc(N)c34)c2F)cc1Cl , I see its pIC50 listed as ≥ 7.00

Looking up Cn1cc(-c2cccc(NS(=O)(=O)c3ccc(Br)c(C(F)(F)F)c3)c2F)c2c(N)ncnc21 , I see its pIC50 listed as 6.30 to 7.00

Looking up CC(=O)OCc1cc(Cl)cc(S(=O)(=O)Nc2cccc(-c3nc(C)n4ccnc(N)c34)c2F)c1Cl , I see its pIC50 listed as 6.30 to 7.00

Looking up Cn1cc(-c2cccc(NS(=O)(=O)c3ccc(Cl)c(CO)c3F)c2F)c2c(N)ncnc21 , I see its pIC50 listed as 6.00 to 6.30

Looking up Cc1cc(-c2cccc(NS(=O)(=O)c3cc(Cl)cc(CO)c3Cl)c2F)c2c(N)ncnn12 , I see its pIC50 listed as ≥ 7.00

Looking up COC(=O)c1cccc(S(=O)(=O)Nc2cccc(-c3cn(C)c4ncnc(N)c34)c2F)c1Cl , I see its pIC50 listed as 6.30 to 7.00

Looking up Nc1nccn2c(C3CC3)nc(-c3cccc(NS(=O)(=O)c4cc(Cl)cc(CO)c4Cl)c3F)c12 , I see its pIC50 listed as ≥ 7.00

Looking up COc1ccc(S(=O)(=O)Nc2cccc(-c3cn(C)c4ncnc(N)c34)c2F)cc1Cl , I see its pIC50 listed as ≥ 7.00

Looking up CCNc1nc(-c2cccc(NS(=O)(=O)c3cc(Cl)cc(CO)c3Cl)c2F)c2c(N)nccn12 , I see its pIC50 listed as ≥ 7.00

Looking up Cc1nc(-c2cccc(NS(=O)(=O)c3cc(Cl)cc(CO)c3F)c2F)c2c(N)nccn12 , I see its pIC50 listed as ≥ 7.00

Looking up Nc1nccn2c(C3CCC3)nc(-c3cccc(NS(=O)(=O)c4cc(Cl)cc(CO)c4Cl)c3F)c12 , I see its pIC50 listed as ≥ 7.00

Looking up Nc1ncnn2ccc(-c3cccc(NS(=O)(=O)c4cc(Cl)cc(CO)c4Cl)c3F)c12 , I see its pIC50 listed as ≥ 7.00

Looking up NC(=O)c1cc(-c2cccc(NS(=O)(=O)c3cc(Cl)cc(CO)c3Cl)c2F)c2c(N)ncnn12 , I see its pIC50 listed as ≥ 7.00

Looking up Cn1cc(-c2cccc(NS(=O)(=O)c3cc(Cl)cc(Br)c3Cl)c2F)c2c(N)ncnc21 , I see its pIC50 listed as ≥ 7.00

Looking up CSc1nc(-c2cccc(NS(=O)(=O)c3cc(Cl)cc(CO)c3Cl)c2F)c2c(N)nccn12 , I see its pIC50 listed as ≥ 7.00
